Tested on: SH-SY5Y
Assay: Cytotoxicity against human SH-SY5Y cells assessed as cell viability at 10 uM after 48 hrs by MTT assay relative to control
Assay type: cell-based
Activity for assorted molecules
Numbers only here, please. The scale is %.

Completed entries (count: 5):
structure smiles string	property label	result
O=C(Nc1cnn(-c2csc(C(=O)NC3COC3)c2)c1)Nc1c(F)cccc1Cl	Activity	102
O=C(Nc1cnn(-c2csc(C(=O)NCC3CCOCC3)c2)c1)Nc1ccccc1Cl	Activity	95
O=C(Nc1cnn(-c2csc(C(=O)N[C@@H]3CCOC3)c2)c1)Nc1ccccc1Cl	Activity	112
O=C(Nc1cnn(-c2csc(C(=O)NC3CCOCC3)c2)c1)Nc1ccccc1Cl	Activity	97
Cc1sc(C(=O)N[C@@H]2CCOC2)cc1-n1cc(NC(=O)Nc2c(F)cccc2Cl)cn1	Activity	114

Request: Report Activity for `O=C(Nc1cnn(-c2csc(C(=O)NC3CC3)c2)c1)Nc1ccccc1Cl` please.
Result: 103

====

Experiment: Plasma concentration in C57BL/6J mouse at 10 mg/kg, po measured after 1 hr by LC-MS/MS analysis
Format: ADME, organism-based
property label: concentration at 1 h (nM)
Kindly provide the numeric value in nM only, without the unit symbol.

Request: Find the recorded concentration at 1 h belonging to `O=C(Nc1cnn(-c2csc(C(=O)NC3COC3)c2)c1)Nc1ccccc1Cl` and report it.
Result: 960

====

List of log10 t1/2 values.
Experiment: Metabolic stability in human liver microsomes assessed as half life
Assay type: ADME, Microsome
All values: log10 t1/2 [h].

structure smiles string	log10 t1/2
CN1CC[C@H](NC(=O)c2cc(-n3cc(NC(=O)Nc4ccccc4Cl)cn3)cs2)C1	-0.05
O=C(Nc1cnn(-c2csc(C(=O)NCC3CCOCC3)c2)c1)Nc1ccccc1Cl	-0.89
O=C(Nc1cnn(-c2csc(C(=O)NC3CC3)c2)c1)Nc1ccccc1Cl	-0.09
O=C(Nc1cnn(-c2csc(C(=O)N[C@@H]3CCOC3)c2)c1)Nc1ccccc1Cl	-0.26
CN1CCC(NC(=O)c2cc(-n3cc(NC(=O)Nc4ccccc4Cl)cn3)cs2)CC1	0.18

Request: Can you share its log10 t1/2? I mean this molecule: `Cc1sc(C(=O)NC2COC2)cc1-n1cc(NC(=O)Nc2c(F)cccc2Cl)cn1`
Result: 0.26

Request: Requested field: log10 t1/2. Item: `Cc1sc(C(=O)N[C@@H]2CCOC2)cc1-n1cc(NC(=O)Nc2c(F)cccc2Cl)cn1`
Result: -0.18

Request: Bench note: what log10 t1/2 did `O=C(Nc1cnn(-c2csc(C(=O)NC3COC3)c2)c1)Nc1c(F)cccc1Cl` show?
Result: 0.22

Request: Suppose we examine the molecule `O=C(Nc1cnn(-c2csc(C(=O)NC3COC3)c2)c1)Nc1ccccc1Cl` ; what log10 t1/2 value has been reported?
Result: 0.04

====

Each entry below lists one item and its recorded Activity value.
System: SH-SY5Y
Assay: Cytotoxicity against human SH-SY5Y cells assessed as cell viability at 10 uM after 48 hrs by MTT assay relative to control
Format: cell-based
Note: unit % is implicit; provide only the numeric part.

Request: Which Activity is listed for `CN1CCC(NC(=O)c2cc(-n3cc(NC(=O)Nc4ccccc4Cl)cn3)cs2)CC1` ?
Result: 89

Request: Recorded Activity for `O=C(Nc1cnn(-c2csc(C(=O)NC3COC3)c2)c1)Nc1ccc(F)cc1Cl` , please?
Result: 104

Request: Fill in: Activity of `Cc1sc(C(=O)NC2COC2)cc1-n1cc(NC(=O)Nc2c(F)cccc2Cl)cn1` is ___
Result: 111

Request: Quick check: Activity of `O=C(Nc1cnn(-c2csc(C(=O)NC3COC3)c2)c1)Nc1ccccc1Cl` ?
Result: 104

Request: May I ask what Activity has been recorded for `CN1CC[C@H](NC(=O)c2cc(-n3cc(NC(=O)Nc4ccccc4Cl)cn3)cs2)C1` ?
Result: 94
